Data provenance is patent US8420657B2.

SYSTEM UNDER TEST: GST-JAK2(808-1132) (Homo sapiens)
Construct: GST-JAK2(808-1132); purchased Invitrogen (Carlsbad, USA) #4288
Sequence (O60674 808-1132): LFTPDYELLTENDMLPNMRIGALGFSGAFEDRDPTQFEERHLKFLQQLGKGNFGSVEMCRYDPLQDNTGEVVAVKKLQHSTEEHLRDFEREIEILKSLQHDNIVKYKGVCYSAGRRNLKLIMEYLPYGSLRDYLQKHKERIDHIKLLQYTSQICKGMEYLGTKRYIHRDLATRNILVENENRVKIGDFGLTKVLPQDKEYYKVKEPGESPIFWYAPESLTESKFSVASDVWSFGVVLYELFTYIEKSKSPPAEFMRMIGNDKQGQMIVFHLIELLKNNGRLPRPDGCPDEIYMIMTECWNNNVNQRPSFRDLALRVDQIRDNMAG
ASSAY OVERVIEW: JAK2 kinase assay (Caliper mobility shift, LabChip 3000)
Format: biochemical
Listed here are compounds together with their documented IC50.
MEASURED METRIC: IC50

compound=Cc1ccc(Nc2ncc3ccn(-c4cc(F)c(CN5CCOCC5)c(F)c4)c3n2)cc1CN1CCN(C)CC1 obs_value="≤ 3 nM"
compound="Fc1cc(-n2ccc3cnc(Nc4ccc(N5CCNC(C(F)(F)F)C5)nc4)nc32)cc(F)c1CN1CCOCC1 (racemic)" obs_value="≤ 3 nM"
compound="C[C@@H]1CN[C@@H](C)CN1c1ccc(Nc2ncc3ccn(-c4cc(F)c(C(=O)N5CCOCC5)c(F)c4)c3n2)cn1 (racemic)" obs_value="10 nM"
compound=COc1cc(Nc2ncc3ccn(-c4ccc(CC(=O)N5CCOCC5)cc4)c3n2)ccc1F obs_value="< 3 nM"
